biological target: pepsin (SIGMA, 2XCRY) (Sus scrofa, UniProt P00791); construct: purchased SIGMA 2XCRY; test: Assay of pepsin-inhibitory activity (casein digestion); format: biochemical; conditions: casein, pH 2, 37° C, 30 minutes; read-out: ID50 Pepsin (converted)
Sequence (P00791 60-385): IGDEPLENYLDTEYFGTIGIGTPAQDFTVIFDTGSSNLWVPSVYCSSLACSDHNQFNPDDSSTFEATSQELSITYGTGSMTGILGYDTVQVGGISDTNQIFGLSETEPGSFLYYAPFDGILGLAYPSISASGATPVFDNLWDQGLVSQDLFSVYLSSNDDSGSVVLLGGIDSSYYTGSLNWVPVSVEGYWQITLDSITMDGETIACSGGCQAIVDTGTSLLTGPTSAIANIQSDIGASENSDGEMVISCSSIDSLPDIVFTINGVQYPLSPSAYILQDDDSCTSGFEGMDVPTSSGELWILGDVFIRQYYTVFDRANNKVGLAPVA
Parameter: IC50. Scope: all listed entries.
Return type: number; implicit unit nM.

[
  {
    "compound": "CC(C)CC(=O)N[C@H](C(=O)N[C@@H](CC(C)C)[C@@H](O)CC(=O)N[C@@H](C)C(=O)N[C@@H](CC(C)C)[C@@H](O)CC(=O)O)C(C)C [Isovaleryl-Val-X-Ala-X, N-isovaleryl-Val-X-Ala-X]",
    "IC50 [nM]": 17
  }
]

[ask] Any idea what its IC50 is? The compound is CC(C)C[C@H](NC(=O)[C@H](C)NC(=O)C[C@H](O)[C@H](CC(C)C)NC(=O)[C@@H](NC(=O)C(C)C)C(C)C)[C@@H](O)CC(=O)O [Isobutyryl-Val-X-Ala-X, N-isobutyryl-Val-X-Ala-X]
[reply] 36.7
